Entries and their koff values follow.
- TESTED SYSTEM: T1, human VEGF-A165 (VEGF homodimer with each monomer having 165 amino acid residues) (Homo sapiens, UniProt P15692-4, strain, biotin (site not stated; named for Supplementary Table 2 only))
- T1 construct: also called hVEGF-A165; hVEGF; source: bought: Peprotech (catalogue number AF-100-20)
- T1 sequence (P15692 whole entry, looked up, change not shown): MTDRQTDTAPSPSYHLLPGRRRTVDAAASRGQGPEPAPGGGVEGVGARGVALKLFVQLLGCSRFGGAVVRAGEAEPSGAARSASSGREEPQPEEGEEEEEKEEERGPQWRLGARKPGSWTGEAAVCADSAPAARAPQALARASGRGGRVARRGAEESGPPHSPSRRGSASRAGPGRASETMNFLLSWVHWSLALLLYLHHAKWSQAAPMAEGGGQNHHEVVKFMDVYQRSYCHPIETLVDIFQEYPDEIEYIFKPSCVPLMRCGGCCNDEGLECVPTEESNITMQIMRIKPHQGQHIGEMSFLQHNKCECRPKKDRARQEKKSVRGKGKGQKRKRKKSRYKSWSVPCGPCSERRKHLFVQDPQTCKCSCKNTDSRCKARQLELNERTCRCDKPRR
- EXPERIMENTAL DETAILS: SPR; Biacore as per the manufacturer's protocol; kinetic rate constants and affinity of the Fab constructs for biotinylated hVEGF-A165
- CONDITIONS USED: both partners purified
Numeric only. Scale: s⁻¹

// below: answered binders
NVS0, the Fab version of brolucizumab (Fab, V domains shown, as the Fab part of the heavy chain of Dm4 (LAVA1), without the GSGGG linker and the LINK domain; as the light chain of Dm4 (LAVA1); Made by converting the anti-VEGF scFv brolucizumab to a Fab format; also called untagged anti-VEGF Fab) VH: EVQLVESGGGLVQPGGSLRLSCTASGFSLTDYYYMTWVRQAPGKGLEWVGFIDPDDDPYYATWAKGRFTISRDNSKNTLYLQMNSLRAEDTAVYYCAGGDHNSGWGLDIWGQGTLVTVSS VL: EIVMTQSPSTLSASVGDRVIITCQASEIIHSWLAWYQQKPGKAPKLLIYLASTLASGVPSRFSGSGSGAEFTLTISSLQPDDFATYYCQNVYLASTNGANFGQGTKLTVL
7.87e-05
LAVA2, protease-resistant variant of LAVA1 (Fab, V domains shown, as the Fab part of the heavy chain of Dm4 (LAVA1); linker; TSG6, human, LINK domain (HABP), with amino acid substitutions around the observed proteolytic sites; as the light chain of Dm4 (LAVA1); The substitutions are in Supplementary Data 2) VH: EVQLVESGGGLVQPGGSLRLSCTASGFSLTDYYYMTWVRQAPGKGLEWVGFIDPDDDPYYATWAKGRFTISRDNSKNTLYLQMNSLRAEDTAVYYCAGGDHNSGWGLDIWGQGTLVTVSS VL: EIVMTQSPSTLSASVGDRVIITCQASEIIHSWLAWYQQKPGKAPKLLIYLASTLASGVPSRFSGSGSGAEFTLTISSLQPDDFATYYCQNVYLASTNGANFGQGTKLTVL
0.000185

Now for the binder whose koff we want.
Endpoint output: koff of LAVA24, non-glycosylated variant of LAVA1 (Fab, V domains shown, as the Fab part of the heavy chain of Dm4 (LAVA1); linker; TSG6, human, LINK domain (HABP), the N-linked glycosylation site deleted by substitution of the asparagine residue; as the light chain of Dm4 (LAVA1); The substitution is in Supplementary Data 2) VH: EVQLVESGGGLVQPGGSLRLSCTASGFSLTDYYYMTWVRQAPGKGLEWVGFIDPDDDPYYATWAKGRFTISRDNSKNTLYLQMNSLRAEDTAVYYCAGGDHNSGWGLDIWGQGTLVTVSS VL: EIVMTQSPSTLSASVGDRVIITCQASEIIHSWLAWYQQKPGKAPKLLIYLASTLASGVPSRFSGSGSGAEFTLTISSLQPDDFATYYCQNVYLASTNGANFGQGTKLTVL . Value?
0.000198

The measurements presented in this section are drawn from paper PMC5376645.
